Please respond with reported X = 340 for every item in the list.
- Target Of Assay: T1, human Dectin-1 (biosensor tests of Tables 3, 4A and 9; construct not stated) (human, UniProt Q9BXN2 66-247, limits assumed)
- T1 construct: also called hDectin-1
- T1 sequence (looked up): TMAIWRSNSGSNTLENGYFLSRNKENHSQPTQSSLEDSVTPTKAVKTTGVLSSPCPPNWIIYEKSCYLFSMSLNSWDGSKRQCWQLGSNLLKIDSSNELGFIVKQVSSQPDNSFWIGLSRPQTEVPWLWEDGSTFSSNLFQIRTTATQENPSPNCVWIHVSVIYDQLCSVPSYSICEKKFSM
- Experimental Details: Octet response; also: time not given here
Number only, please.

Task: What measured X = 340 goes with 2M24A.1.2 hFab (Fab, V domains shown, Fab; also called 2M24.1.2) VH: QVQLVQSGAEVKKPGASVKVSCKSSGYTFTDYYIHWVRQAPGQGLEWMGWINPNSGATNYAQKFQGRITMTRDTSISTAYLELSRLRSDDTAVFYCARNSGSYSFGYWGQGTLVTVSS VL: DIQMTQSPSSVSASVGDRVTITCRASQGISSWLAWYQQKPGKAPKLLIFGASSLQSGVPSRFSGSGSGTDFTLTVSSLQPEDFATYYCQQAASFPFTFGPGTKVDIE ?
Result: 0.331

Task: Requested field: X = 340. Item: 2M24A.1.3 hFab (Fab, V domains shown, Fab; also called 2M24.1.3) VH: QVQLVQSGAEVKKPGASVKVSCKSSGYTFTDYYIHWVRQAPGQGLEWMGWINPNSGDTNYAQKFQGRITMTRDTSISTAYLELSRLRSDDTAVFYCARASGSYSFGYWGQGTLVTVSS VL: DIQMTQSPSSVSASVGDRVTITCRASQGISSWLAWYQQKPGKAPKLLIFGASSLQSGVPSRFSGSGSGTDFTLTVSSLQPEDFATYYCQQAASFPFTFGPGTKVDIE
Result: 0
